- Test system: CD4+ T cells
- assay.summary: exogenous autologous normal donor restimulation assay, TNFα/IFNγ double positive CD4+ T cells by flow cytometry
- Assay type: cell-based, human
- measurement.conditions: maximum CD4+ T-cell response, donor independent; peptide pool 10 μg/mL; healthy donors
Could you please report measured Frequency (TNFα + IFNγ + CD4 T cells) for the items listed next?

Return reported Frequency (TNFα + IFNγ + CD4 T cells). Input molecule: LKQDVRSGGPGARQLRGGLLRQAAPPGRRTRPFPHRARLHTALPTARLPGGPAAASRPAFRAAPRESGASVPGPSASPG (neoantigen, alternative splicing of IL17RC) LKQDVRSGGPGARQLRGGLLRQAAPPGRRTRPFPHRARLHTALPTARLPGGPAAASRPAFRAAPRESGASVPGPSASPG 0.12%

Return reported Frequency (TNFα + IFNγ + CD4 T cells). Input molecule: RDLQCPKKTQTPQAQSRLESERKKNTLTWLVPTPWDWRQWSTAPSRGLVWPPPPVDYELWKSS (neoantigen, alternative splicing of LRRC75B) RDLQCPKKTQTPQAQSRLESERKKNTLTWLVPTPWDWRQWSTAPSRGLVWPPPPVDYELWKSS 0.047%

Return reported Frequency (TNFα + IFNγ + CD4 T cells). Input molecule: HFVRSQDKGMVWTPEPSALPRTPRRHPGLSLCSQWGGLRVGPPAARPGWSLAHVLRVTLLQFHPNPGKETQKKQRCPKEDPSRIWRA (neoantigen, alternative splicing of RUFY4) HFVRSQDKGMVWTPEPSALPRTPRRHPGLSLCSQWGGLRVGPPAARPGWSLAHVLRVTLLQFHPNPGKETQKKQRCPKEDPSRIWRA 0.28%

Return reported Frequency (TNFα + IFNγ + CD4 T cells). Input molecule: HQYIVVQDIHTETQHSALGAQPADSIPPFLQHTLQHLACPSLELPGNEQARREKRRRDDAFSDSL (neoantigen, alternative splicing of SRGAP3) HQYIVVQDIHTETQHSALGAQPADSIPPFLQHTLQHLACPSLELPGNEQARREKRRRDDAFSDSL 0.078%

Return reported Frequency (TNFα + IFNγ + CD4 T cells). Input molecule: ARLRELRQCGGGRGKRGQGWGVRDETITGRPAVLGSPFLSPALAPPSRLMGDLWDGQSAGWSPGSPASPFCGGW (neoantigen, alternative splicing of HSF4) ARLRELRQCGGGRGKRGQGWGVRDETITGRPAVLGSPFLSPALAPPSRLMGDLWDGQSAGWSPGSPASPFCGGW 0.043%
